target: CDK9 (Homo sapiens); construct: endogenous in cells; host or cells: MDA-MB-231; test: CDK protein degradation activity (Western blotting), CDK9; format: cell-based; conditions: MDA-MB-231 cells, 0.1 μM, 16 hours, Western blot
Sequence (P50750 whole entry): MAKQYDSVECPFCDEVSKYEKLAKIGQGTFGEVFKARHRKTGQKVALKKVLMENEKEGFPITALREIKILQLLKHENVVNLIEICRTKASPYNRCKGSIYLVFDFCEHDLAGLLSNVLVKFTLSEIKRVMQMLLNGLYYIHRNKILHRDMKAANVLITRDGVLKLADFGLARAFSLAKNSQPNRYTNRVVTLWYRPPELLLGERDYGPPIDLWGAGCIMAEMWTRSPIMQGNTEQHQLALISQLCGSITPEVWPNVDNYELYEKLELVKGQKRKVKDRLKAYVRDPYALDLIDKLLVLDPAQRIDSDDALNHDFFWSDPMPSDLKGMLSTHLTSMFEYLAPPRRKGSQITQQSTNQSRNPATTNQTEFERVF
// returns 0.0 unless Enzyme degradation CDK9 (% remaining) @ 0.1 μM is strictly below 40%, in which case 1.0

Dear colleague, could you confirm whether Enzyme degradation CDK9 (% remaining) @ 0.1 μM of O=C1CC[C@H](N2C(=O)c3ccc(N4CC(C(=O)N5CCN(CC6CCN(c7ccc(Nc8ncnc9c8ncn9C8CC(NC(=O)Cc9ccccc9)C8)cc7)CC6)CC5)C4)cc3C2=O)C(=O)N1 (stereo partly shown) falls below 40%? Thanks. 1.0

Dear colleague, could you confirm whether Enzyme degradation CDK9 (% remaining) @ 0.1 μM of O=C1CCC(N2C(=O)c3cc(F)c(N4CCC(C(=O)N5CCC(CN6CCC(CCNc7ncnc8c7ncn8[C@H]7C[C@@H](NC(=O)Cc8ccccc8)C7)CC6)CC5)CC4)cc3C2=O)C(=O)N1 (stereo partly shown) falls below 40%? Thanks. 1.0

Dear colleague, could you confirm whether Enzyme degradation CDK9 (% remaining) @ 0.1 μM of Cc1cccc(C(=O)NC2CC(n3cnc4c(NCCCN5CCN(C(=O)CNc6cccc7c6C(=O)N([C@@H]6CCC(=O)NC6=O)C7=O)CC5)ncnc43)C2)n1 (stereo partly shown) falls below 40%? Thanks. 0.0

Dear colleague, could you confirm whether Enzyme degradation CDK9 (% remaining) @ 0.1 μM of Cc1cccc(C(=O)NC2CC(n3cnc4c(NC5CCN(C(=O)CC6CCN(c7ccc8c(c7)C(=O)N([C@H]7CCC(=O)NC7=O)C8=O)CC6)CC5)ncnc43)C2)n1 (stereo partly shown) falls below 40%? Thanks. 0.0

Dear colleague, could you confirm whether Enzyme degradation CDK9 (% remaining) @ 0.1 μM of O=C1CC[C@H](N2C(=O)c3cc(F)c(N4CCC(CCCN5CCN(c6ccc(Nc7ncnc8c7ncn8[C@H]7C[C@@H](NC(=O)Cc8ccccc8)C7)cc6)CC5)CC4)cc3C2=O)C(=O)N1 falls below 40%? Thanks. 1.0

Dear colleague, could you confirm whether Enzyme degradation CDK9 (% remaining) @ 0.1 μM of Cc1cccc(C(=O)N[C@H]2C[C@@H](n3cnc4c(NC5CCN(CCC6CCN(c7ccc8c(c7)C(=O)N([C@H]7CCC(=O)NC7=O)C8=O)CC6)CC5)ncnc43)C2)n1 falls below 40%? Thanks. 1.0

Dear colleague, could you confirm whether Enzyme degradation CDK9 (% remaining) @ 0.1 μM of Cc1cccc(C(=O)N[C@H]2C[C@@H](n3cnc4c(NCCCN5CCN(CC6CCN(C(=O)COc7cccc([C@@H]8CCC(=O)NC8=O)c7)CC6)CC5)ncnc43)C2)n1 falls below 40%? Thanks. 1.0

Dear colleague, could you confirm whether Enzyme degradation CDK9 (% remaining) @ 0.1 μM of Cc1cccc(C(=O)N[C@H]2C[C@@H](n3cnc4c(Nc5ccc(N6CCN(C7CC8(CCN(C(=O)C9CN(c%10ccc%11c(c%10)C(=O)N(C%10CCC(=O)NC%10=O)C%11=O)C9)CC8)C7)CC6)cc5)ncnc43)C2)n1 (stereo partly shown) falls below 40%? Thanks. 1.0

Dear colleague, could you confirm whether Enzyme degradation CDK9 (% remaining) @ 0.1 μM of O=C1CC[C@H](n2nnc3ccc(N4CCC(N5CCN(c6ccc(Nc7ncnc8c7ncn8[C@H]7C[C@@H](NC(=O)Cc8ccccc8)C7)cc6)CC5)CC4)cc3c2=O)C(=O)N1 falls below 40%? Thanks. 1.0

Dear colleague, could you confirm whether Enzyme degradation CDK9 (% remaining) @ 0.1 μM of O=C1CC[C@H](N2C(=O)c3ccc(N4CC(C(=O)N5CCN(C6CCN(c7ccc(Nc8ncnc9c8ncn9C8CC(NC(=O)Cc9ccccc9)C8)cc7)CC6)CC5)C4)cc3C2=O)C(=O)N1 (stereo partly shown) falls below 40%? Thanks. 0.0

Dear colleague, could you confirm whether Enzyme degradation CDK9 (% remaining) @ 0.1 μM of O=C1CC[C@H](N2C(=O)c3ccc(N4CCN(CC5CCN(c6ccc(Nc7ncnc8c7ncn8[C@H]7C[C@@H](NC(=O)c8c(Cl)cccc8Cl)C7)cc6)CC5)CC4)cc3C2=O)C(=O)N1 falls below 40%? Thanks. 1.0
